target: human PCSK9 (PCSK9 antigen, SEQ ID NO. 53) (human, UniProt A8T644 31-152; Q8NBP7 153-692, Biotin-labelled on amines in the MSD-SET and sorting experiments; positions not given.); experiment: cell-based or functional assay; further: unit not given here
# reported BODIPY-LDL uptake by HepG2 cells, fluorescence, 16.8 nM, replicate 2; entries follow
outcomeMeasure: BODIPY-LDL uptake by HepG2 cells, fluorescence, 16.8 nM, replicate 2

binder	measurement
ADI-10089 (antibody, human IgG2, kappa, V domains shown, IgG) VH: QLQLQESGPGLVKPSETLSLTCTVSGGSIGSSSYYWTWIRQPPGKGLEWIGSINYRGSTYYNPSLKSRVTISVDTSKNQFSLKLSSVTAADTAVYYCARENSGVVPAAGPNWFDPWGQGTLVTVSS VL: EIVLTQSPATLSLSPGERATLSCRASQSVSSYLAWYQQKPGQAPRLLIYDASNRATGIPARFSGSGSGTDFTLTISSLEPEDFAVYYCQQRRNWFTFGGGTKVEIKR	0.706
ADI-10085 (antibody, human IgG2, kappa, V domains shown, IgG) VH: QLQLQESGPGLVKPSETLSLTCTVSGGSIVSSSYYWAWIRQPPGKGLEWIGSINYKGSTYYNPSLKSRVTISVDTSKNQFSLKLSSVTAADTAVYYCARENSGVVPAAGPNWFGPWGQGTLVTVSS VL: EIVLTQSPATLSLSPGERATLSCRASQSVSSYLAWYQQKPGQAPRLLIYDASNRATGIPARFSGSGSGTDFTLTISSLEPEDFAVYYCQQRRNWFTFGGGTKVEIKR	0.742
ADI-10088 (antibody, human IgG2, kappa, V domains shown, IgG) VH: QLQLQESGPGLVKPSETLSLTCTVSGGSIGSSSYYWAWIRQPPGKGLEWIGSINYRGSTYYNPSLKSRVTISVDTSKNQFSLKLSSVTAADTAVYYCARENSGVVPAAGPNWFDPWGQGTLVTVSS VL: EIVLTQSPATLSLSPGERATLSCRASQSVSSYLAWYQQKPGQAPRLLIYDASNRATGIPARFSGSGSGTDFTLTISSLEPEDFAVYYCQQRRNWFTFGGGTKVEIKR	0.561
Lodelcizumab (antibody, V domains shown) VH: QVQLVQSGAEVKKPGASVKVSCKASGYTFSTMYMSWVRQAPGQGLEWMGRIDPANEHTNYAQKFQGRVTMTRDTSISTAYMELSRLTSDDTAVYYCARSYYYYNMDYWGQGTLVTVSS VL: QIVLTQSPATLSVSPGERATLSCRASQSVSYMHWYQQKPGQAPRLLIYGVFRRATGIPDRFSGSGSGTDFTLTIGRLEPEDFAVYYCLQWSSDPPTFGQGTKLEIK	0.314
ADI-10087 (antibody, human IgG2, kappa, V domains shown, also called anti-PCSK antibody of the invention) VH: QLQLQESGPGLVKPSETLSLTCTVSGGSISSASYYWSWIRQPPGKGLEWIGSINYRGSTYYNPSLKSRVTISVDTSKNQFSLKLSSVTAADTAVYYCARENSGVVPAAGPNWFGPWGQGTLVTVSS VL: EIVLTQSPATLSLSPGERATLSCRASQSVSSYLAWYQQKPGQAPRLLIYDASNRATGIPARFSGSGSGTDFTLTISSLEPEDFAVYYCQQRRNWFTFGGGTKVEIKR	0.683
ADI-02396 (antibody, human IgG2, kappa, V domains shown, IgG; also called parent antibody) VH: QLQLQESGPGLVKPSETLSLTCTVSGGSISSSSYYWGWIRQPPGKGLEWIGSIYYSGSTYYNPSLKSRVTISVDTSKNQFSLKLSSVTAADTAVYYCAREGSGVVPAAGPNWFDPWGQGTLVTVSS VL: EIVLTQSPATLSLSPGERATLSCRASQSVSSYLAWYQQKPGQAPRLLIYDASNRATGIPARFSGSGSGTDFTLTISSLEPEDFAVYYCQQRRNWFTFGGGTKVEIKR	0.341
Evolocumab (antibody, V domains shown) VH: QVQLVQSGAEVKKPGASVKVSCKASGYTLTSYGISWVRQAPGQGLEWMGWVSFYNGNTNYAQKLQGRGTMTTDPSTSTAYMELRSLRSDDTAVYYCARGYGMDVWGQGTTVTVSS VL: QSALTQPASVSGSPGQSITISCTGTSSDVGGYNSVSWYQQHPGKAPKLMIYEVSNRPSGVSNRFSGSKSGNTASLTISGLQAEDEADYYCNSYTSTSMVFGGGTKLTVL	0.363
